# System: West Nile virus
# Assay Protocol: Inhibition of West Nile virus NS2B-NS3 protease expressed in Escherichia coli BL21 lambda (DE3) using Abz-GLKRGG-3-(NO2)Y as substrate at 50 uM preincubated for 15 mins before substrate addition measured up to 15 mins by spectrofluorimetry

Compound	inhibition
CN1CCN(C(=O)/C(C#N)=C/c2ccc(O)cc2)CC1	35.1%
N#C/C(=C\c1ccc(Br)cc1)C(N)=O	15.9%
COc1cc(/C=C(\C#N)C(N)=O)ccc1O	42.9%
N#C/C(=C\c1ccc(Br)s1)C(=O)NC1CC1	10.5%
N#C/C(=C\c1cccs1)C(N)=O	23.9%
COc1ccc(/C=C(\C#N)C(=O)N[C@@H](CO)C(=O)NC2CC2)cc1	31.7%
CN(C)c1ccc(/C=C(\C#N)C(=O)NCc2ccccn2)cc1	21.3%
CC(C)c1ccc(/C=C(\C#N)C(=O)NCC2CCCO2)cc1 (stereo not drawn)	46.3%
N#C/C(=C\c1cc(O)c(O)c([N+](=O)[O-])c1)C(N)=O	28.2%
CCC/C(=C(\C#N)C(N)=O)c1ccccc1	16%
N#C/C(=C\c1ccc(C#N)cc1)C(N)=O	20%
CN(C)c1ccc(/C=C(\C#N)C(=O)NCC2CCCO2)cc1 (stereo not drawn)	28.1%
N#C/C(=C\c1ccc(O)cc1)C(=O)NCC1CCCO1 (stereo not drawn)	44.4%
COc1cc(/C=C(\C#N)C(N)=O)cc(I)c1O	43.8%
CC(=C\c1ccccc1)/C=C(\C#N)C(N)=O	34.6%
CN(C)c1ccc(/C=C(\C#N)C(=O)N2CCOCC2)cc1	38.1%
N#C/C(=C\c1ccc(F)cc1)C(N)=O	16%
N#CC(Cc1ccc(N2CCOCC2)cc1)C(N)=O (stereo not drawn)	7.9%
N#C/C(C(N)=O)=C1\CCc2ccccc21	24.1%
CN(C)c1ccc(C=C(C#N)C#N)cc1	8.8%
N#C/C(=C\c1ccc(O)cc1)C(=O)NC1CC1	57.3%
C/C(=C(\C#N)C(N)=O)c1ccccc1	18.4%
N#C/C(=C\c1ccc(Br)cc1)C(=O)NC1CC1	22.6%
CCC/C(=C(/C#N)C(N)=O)c1ccccc1	15.3%
N#C/C(=C\c1ccc(O)c(O)c1)C(N)=O	28.8%
N#C/C(=C\c1cccc(N2CCOCC2)c1)C(=O)NC1CC1	20.5%
N#C/C(=C\c1ccc(N2CCCCC2)cc1)C(N)=O	24.2%

* * *

# Test system: Dengue virus
# Assay Protocol: Inhibition of Dengue virus NS2B-NS3 protease expressed in Escherichia coli BL21 lambda (DE3) using Abz-NleKRRS-3-(NO2)Y as substrate at 50 uM preincubated for 15 mins before substrate addition measured up to 15 mins by spectrofluorimetry
Activity calls are given as the source filed them. The calls are words filed in the database; no cut-off is given here.
Outcome Measure: inhibition

Compound	Test Value
N#C/C(=C\c1ccc(F)cc1)C(N)=O	22.5%
N#C/C(=C\c1ccc(Br)cc1)C(=O)NC1CC1	10.9%
N#C/C(=C\c1cccc(N2CCOCC2)c1)C(=O)NC1CC1	18.5%
COc1ccc(/C=C(\C#N)C(N)=O)cc1OC	19.2%
N#C/C(=C\c1cccc(O)c1)C(N)=O	15.7%
N#C/C(=C\c1sccc1Br)C(N)=O	18.4%
N#C/C(=C\c1cccc(C(=O)O)c1)C(=O)NC1CC1	20.2%
N#C/C(=C\c1ccc(O)cc1)C(=O)N1CCOCC1	32.2%
N#C/C(=C\c1ccc(O)cc1)C(=O)NCc1ccccn1	46.6%
CC(=C\c1ccccc1)/C=C(\C#N)C(N)=O	30.2%
N#C/C(=C\c1c[nH]c2ccccc12)C(N)=O	23.7%
N#C/C(=C\c1ccccc1N1CCOCC1)C(N)=O	10.4%
CN(C)c1ccc(/C=C/CC(C#N)C(=O)NC2CC2)cc1 (stereo not drawn)	9%
N#C/C(=C\c1ccc(N2CCOCC2)o1)C(=O)NC1CC1	10.5%
Cc1ccc(/C=C(\C#N)C(N)=O)cc1	32.2%
N#C/C(=C\c1ccc(Cl)cc1Cl)C(N)=O	14.7%
N#CC(Cc1ccc(N2CCOCC2)cc1)C(N)=O (stereo not drawn)	inactive
N#Cc1n[nH]nc1-c1ccccc1	inactive
C/C(=C(/C#N)C(N)=O)c1ccc(O)cc1	16.8%
N#C/C(=C\c1ccccc1)C(N)=O	15%
N#C/C(=C\c1ccc(O)cc1)C(=O)NC1CC1	44.7%
COc1ccc(/C=C(\C#N)C(N)=O)cc1	19.7%
C/C(=C(\C#N)C(N)=O)c1ccc(O)cc1	13.2%
